Items are presented alongside their recorded inhibition at 100 µM.
Measured Target: type 1 human 5α-reductase (Homo sapiens, UniProt P18405)
Sequence (P18405 whole entry): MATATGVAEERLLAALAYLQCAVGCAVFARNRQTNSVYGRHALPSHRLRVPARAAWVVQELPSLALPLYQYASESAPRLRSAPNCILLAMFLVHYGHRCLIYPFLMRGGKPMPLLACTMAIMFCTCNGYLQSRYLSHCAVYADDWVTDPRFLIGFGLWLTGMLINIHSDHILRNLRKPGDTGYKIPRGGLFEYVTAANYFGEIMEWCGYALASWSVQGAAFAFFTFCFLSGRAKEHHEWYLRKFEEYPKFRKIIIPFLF
Assay Details: Cell-free enzymatic assay of 5α-reductase (testosterone to DHT), type 1
Experimental Conditions: read-out: percent inhibition of 5α-reductase activity, cell-free assay, Type 1, 100 μM compound
Number in %, nothing else.

{"Compound": "O=C(/C=C/c1ccc(O)c(O)c1)OCCc1ccccc1 [Caffeic acid phenethyl ester]", "Scale Unit": "%", "inhibition at 100 µM": 97}

The recorded inhibition at 100 µM for entry COc1cc(/C=C/CO)ccc1O [Coniferol, coniferyl alcohol] equals 10

The recorded inhibition at 100 µM for entry O=c1ccc2cc(O)c(O)cc2o1 [Esculetin, 6,7-dihydroxycoumarin] equals 7

The recorded inhibition at 100 µM for entry O=c1c(O)cccc2cc(O)c(O)c(O)c12 [Purpurogallin] equals 81

----------
Items are presented alongside their recorded IC50.
Measured Target: type 1 human 5α-reductase (Homo sapiens)
Assay Details: Cell-free enzymatic assay of 5α-reductase (testosterone to DHT), type 1
The reply must contain the numeric value and, after it, the unit.

{"Molecule": "CC(Cc1ccc(O)c(O)c1)C(C)Cc1ccc(O)c(O)c1 (centres unmarked) [Nordihydroguaiaretic acid]", "Observed": "19 µM"}

# input for lookup
The recorded IC50 for entry CC/C=C\C/C=C\C/C=C\CCCCCCCC(=O)O [Alpha-Linolenic Acid, Alpha-Linolenic Acid C18:3 CIS 9,12,15] equals 8 µM

----------
Tested on: 5α-reductase
Assay Details: Whole-cell 5α-reductase assay, isozyme not given
Format: cell-based, human
Experimental Conditions: isozyme not stated
Measured Property: inhibitory activity in the whole-cell assay

# annotated cases, reported inhibitory activity in the whole-cell assay shown
{"Molecule": "Oc1ccccc1O [Catechol, 1,2-dihydroxybenzene]", "Measured Target": "5α-reductase", "Observed": "weak inhibitory activity"}
{"Molecule": "Oc1cccc(O)c1O [Pyrogallol, 1,2,3-trihydroxybenzene]", "Measured Target": "5α-reductase", "Observed": "weak inhibitory activity"}
{"Molecule": "CCCCC/C=C\\C/C=C\\C/C=C\\CCCCC(=O)OC", "Measured Target": "5α-reductase", "Observed": "little activity"}
{"Molecule": "O=C(O)c1cc(O)c(O)c(O)c1 [gallic acid, 3,4,5-trihydroxybenzoic acid]", "Measured Target": "5α-reductase", "Observed": "weak inhibitory activity"}

# input for lookup
The recorded inhibitory activity in the whole-cell assay for entry `CCCCC/C=C\C/C=C\C/C=C\CCCCC(=O)O[C@H]1CC[C@@]2(C)C(=CC[C@H]3[C@@H]4CC[C@H]([C@H](C)CCCC(C)C)[C@@]4(C)CC[C@@H]32)C1` equals little activity

----------
Items are presented alongside their recorded IC50.
Measured Target: type 2 human 5α-reductase (Homo sapiens)
Sequence (P31213 whole entry): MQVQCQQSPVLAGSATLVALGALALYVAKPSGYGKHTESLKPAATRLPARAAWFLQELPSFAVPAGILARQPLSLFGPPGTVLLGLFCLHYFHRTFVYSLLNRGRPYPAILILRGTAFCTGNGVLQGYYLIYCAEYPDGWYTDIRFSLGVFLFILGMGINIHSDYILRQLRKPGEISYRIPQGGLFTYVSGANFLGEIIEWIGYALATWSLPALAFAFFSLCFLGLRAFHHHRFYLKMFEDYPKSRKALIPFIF
Assay Details: Whole-cell assay of 5α-reductase, type 2
Assay type: cell-based
Set-up: expressed in transfected cells; host or cells: rat 1A cells infected with pMV7 retrovirus and selected with G418; intact cells for the whole-cell assay
Experimental Conditions: rat 1A cells expressing human type 2 5α-reductase

# annotated cases, reported IC50 shown
{"Compound": "CC/C=C\\C/C=C\\C/C=C\\CCCCCCCC(=O)O [Alpha-Linolenic Acid, Alpha-Linolenic Acid C18:3 CIS 9,12,15]", "Measured Target": "type 2 human 5α-reductase (Homo sapiens)", "Observed": "23 µM"}
{"Compound": "CCCC/C=C\\CCCCCCCC(=O)O[C@@H]1Cc2c(O)cc(O)cc2O[C@@H]1c1cc(O)c(O)c(O)c1 [EGC-myristoleate, EGC-3-myristoleate]", "Measured Target": "type 2 human 5α-reductase (Homo sapiens)", "Observed": "< 15 µM"}

# input for lookup
The recorded IC50 for entry CCCCC/C=C\C/C=C\C/C=C\CCCCC(=O)O[C@@H]1Cc2c(O)cc(O)cc2O[C@@H]1c1cc(O)c(O)c(O)c1 [EGC-γ-linoleneate acid, EGC-γ-linoleneate] equals < 15 µM
